# Test system: Human immunodeficiency virus
# procedureDetails: Inhibition of HIV reverse transcriptase assessed as incorporation of [3H]dTMP at 30 uM
Recorded inhibition by entry

>  <chemicalStructure>
O=C(O[C@@H]1C[C@](OC(=O)c2cc(O)c(O)c(O)c2)(C(=O)O)C[C@@H](OC(=O)c2cc(O)c(O)c(O)c2)[C@H]1OC(=O)c1cc(O)c(O)c(O)c1)c1cc(O)c(O)c(O)c1

>  <unitsOfMeasure>
%

>  <inhibition>
84

$$$$
>  <chemicalStructure>
O=C(Oc1c(O)cc(C(=O)O[C@@H]2C[C@](O)(C(=O)O)C[C@@H](OC(=O)c3cc(O)c(O)c(O)c3)[C@H]2OC(=O)c2cc(O)c(O)c(O)c2)cc1O)c1cc(O)c(O)c(O)c1

>  <unitsOfMeasure>
%

>  <inhibition>
63

$$$$
>  <chemicalStructure>
O=C(Oc1c(O)cc(C(=O)O[C@@H]2C[C@@](O)(C(=O)O)C[C@@H](OC(=O)c3cc(O)c(O)c(O)c3)[C@@H]2OC(=O)c2cc(O)c(O)c(O)c2)cc1O)c1cc(O)c(O)c(O)c1

>  <unitsOfMeasure>
%

>  <inhibition>
70

$$$$
>  <chemicalStructure>
O=C(Oc1c(O)cc(C(=O)O[C@H]2[C@H](OC(=O)c3cc(O)c(O)c(O)c3)C[C@](O)(C(=O)O)C[C@H]2OC(=O)c2cc(O)c(O)c(O)c2)cc1O)c1cc(O)c(O)c(O)c1

>  <unitsOfMeasure>
%

>  <inhibition>
73

$$$$
>  <chemicalStructure>
O=C(O[C@@H]1C[C@](O)(C(=O)O)C[C@@H](OC(=O)c2cc(O)c(O)c(O)c2)[C@H]1OC(=O)c1cc(O)c(O)c(O)c1)c1cc(O)c(O)c(O)c1

>  <unitsOfMeasure>
%

>  <inhibition>
48

$$$$
